System: 3D7-MR4 trophozoite parasite-infected RBCs
Assay: Metabolomic profiling (hydrophilic metabolite changes, UHPLC-MS)
Type: cell-based, Plasmodium falciparum
Details: metabolite nicotinate
Decide by Log2(fold change) nicotinate: equal to or exceeding -0.1 means Met, less means Not met.

Solved cases below.
>  <molecule>
CCCN(CCC)CC(O)COc1ccccc1C(=O)Nc1ccccc1 (stereo not shown)

>  <class>
Met

$$$$
>  <molecule>
O=C(Nc1ccsc1C(=O)NC1CCCCC1)c1ccc(F)cc1

>  <class>
Met

$$$$
>  <molecule>
Cl.c1ccc2c(NCCCCCCNc3c4c(nc5ccccc35)CCCC4)c3c(nc2c1)CCCC3

>  <class>
Not met

$$$$

Q) Reported Log2(fold change) nicotinate reaches at least -0.1 for `O=C(Nc1ccc(N2CCNCC2)cc1)c1ccn2ncc(-c3cccc(Cl)c3)c2n1.O=C(O)C(F)(F)F` ?
A) Not met
